Quick reference for pIC50 among some compounds
System: MT4
Assay: Potency against […] nucleoside reverse transcriptor was determined in MT-4 cells
Assay type: functional, cell-based
Conditions: Homo sapiens
Where a name gives a salt, the structure may show the parent alone.
In textbook form, pIC50 equals minus log to base ten of the concentration in mol/L.

O=C1Nc2ccc(Cl)cc2[C@@](C#CC2CC2)(C(F)(F)F)O1 [EFAVIRENZ] | 7.40
Nc1ccn([C@H]2CC[C@@H](CO)O2)c(=O)n1 [ZALCITABINE] | 5.80

For the compound S=C(NCCc1ccccn1)Nc1ccc(Br)cn1 [TROVIRDINE HYDROCHLORIDE] , what pIC50 is on record?
6.10

For the compound Cc1cn([C@H]2C[C@H](N=[N+]=[N-])[C@@H](CO)O2)c(=O)[nH]c1=O [ZIDOVUDINE] , what pIC50 is on record?
7.40

For the compound `CCOC(=O)c1cccn1S(=O)(=O)c1cc(Cl)ccc1N` , what pIC50 is on record?
6.40

For the compound `Cc1ncc([N+](=O)[O-])n1CCOC(c1ccccc1)c1ccccc1` , what pIC50 is on record?
7.30

For the compound Nc1[nH]cnc2ncnc1-2 [ADENINE] , what pIC50 is on record?
4.92

For the compound Cc1ccnc2c1NC(=O)c1cccnc1N2C1CC1 [NEVIRAPINE] , what pIC50 is on record?
6.22
